For each entry below, report its Ki value.
target-desc: human EP1 receptor (Homo sapiens, UniProt P34995)
Construct: expressed in transfected cells; host or cells: CHO-K1
Sequence (P34995 whole entry): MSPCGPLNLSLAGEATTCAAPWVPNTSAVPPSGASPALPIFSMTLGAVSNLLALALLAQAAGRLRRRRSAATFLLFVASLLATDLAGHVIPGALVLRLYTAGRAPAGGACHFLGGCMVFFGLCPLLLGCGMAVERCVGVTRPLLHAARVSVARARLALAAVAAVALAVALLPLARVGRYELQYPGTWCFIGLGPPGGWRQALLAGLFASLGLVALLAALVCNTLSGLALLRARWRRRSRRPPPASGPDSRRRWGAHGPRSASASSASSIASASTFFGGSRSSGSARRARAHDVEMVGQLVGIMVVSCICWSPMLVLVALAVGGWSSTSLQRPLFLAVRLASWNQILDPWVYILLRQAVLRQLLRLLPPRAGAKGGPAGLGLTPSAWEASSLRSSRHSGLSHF
assay-comment: human EP1 calcium mobilisation assay
Format: cell-based
condition-details: human EP1, PGE2-induced calcium mobilisation in CHO-K1 cells; free bases or sodium salts; averages of a number of experiments; read-out: functional pKi value (converted)
Method: Briefly, the antagonist properties of compounds are assessed by their ability to inhibit the mobilisation of intracellular calcium ([Ca^2+]i) in response to activation of EP1 or EP3 receptors by the natural agonist hormone prostaglandin E2 (PGE2). […] The amount of calcium produced is assessed using a calcium-sensitive fluorescent dye such as Fluo-4, AM and a suitable instrument such as a Fluorimetric Imaging Plate Reader (FLIPR). […]
Where a name gives a salt, the structure may show the parent alone.

Some solved entries appear below for comparison.
Cc1cc(C(=O)O)oc1Cc1cc(Cl)ccc1OCC(C)C ... ≤ 0.01 µM
O=C(O)c1ccc(Cc2cc(Cl)ccc2OCc2ccccc2)o1 ... ≤ 0.01 µM
O=C(O)c1ccc(Cc2cc(Cl)ccc2OCc2c(F)cc(F)cc2F)o1 ... < 1 µM
CC(C)COc1ccc(Cl)cc1Cc1ccc(C(=O)Nc2ccccc2)o1 ... < 1 µM
O=C(Nc1c(F)cccc1F)c1ccc(Cc2cc(Cl)ccc2OCc2ccc(F)cc2F)o1 ... ≤ 0.01 µM
CC(C)COc1ccc(Cl)cc1Cc1ccc(C(=O)NCc2cccc(F)c2F)o1 ... < 1 µM
C=Cc1cnc2[nH]c(-c3ccc(Cc4cc(Cl)ccc4OCC(C)C)o3)nc2c1 [Example 137, hydrochloride] ... < 1 µM
COc1ccc2[nH]c(-c3ccc(Cc4cc(Cl)ccc4OCC(C)C)o3)nc2c1 ... < 1 µM

Provide Ki values for the following items, in order.
1. Cc1cccc(C)c1NC(=O)c1ccc(Cc2cc(Cl)ccc2OCc2ccccc2)o1
2. COCCOc1ccc(Cl)cc1Cc1ccc(C(=O)O)o1
3. CC(C)COc1ccc(Cl)cc1Cc1ccc(-c2nc3ccc(F)c(F)c3[nH]2)o1
4. CC(C)COc1ccc(Cl)cc1Cc1ccc(-c2nc3cc(F)ccc3[nH]2)o1
5. OCc1ccc2nc(-c3ccc(Cc4cc(Cl)ccc4OCc4ccccc4)o3)[nH]c2c1
6. CCNCc1ccc2nc(-c3ccc(Cc4cc(Cl)ccc4OCC(C)C)o3)[nH]c2c1
7. CC(C)COc1ccc(Cl)cc1Cc1ccc(-c2nc3ccc(CCN4CCN(C)CC4)cc3[nH]2)o1

[A]
1: < 1 µM; 2: < 1 µM; 3: < 1 µM; 4: < 1 µM; 5: < 1 µM; 6: < 1 µM; 7: < 1 µM

Provide Ki values for the following items, in order.
1. O=C(Nc1ccccc1Cl)c1ccc(Cc2cc(Cl)ccc2OCc2ccccc2)o1
2. CC(C)(C)NC(=O)c1ccc(Cc2cc(Cl)ccc2OCc2ccccc2)o1
3. CC(C)COc1ccc(Cl)cc1Cc1ccc(-c2nc3cc(CCN4CCCC4)ccc3[nH]2)o1

[A]
1. < 1 µM
2. < 1 µM
3. < 1 µM

---

target-desc: human EP1 receptor (Homo sapiens, UniProt P34995)
Construct: expressed in transfected cells; host or cells: CHO-K1
assay-comment: human EP1 calcium mobilisation assay
Type: cell-based
condition-details: human EP1, PGE2-induced calcium mobilisation in CHO-K1 cells; free bases or sodium salts; averages of a number of experiments; read-out: functional pKi value (converted)
Counter-ions that a name gives are not always drawn.
For each entry below, report its Ki value.

Some solved entries appear below for comparison.
COc1nccc2[nH]c(-c3ccc(Cc4cc(Cl)ccc4OCC(C)C)o3)nc12 ... ≤ 10 nM
O=C(NCc1ccccn1)c1ccc(Cc2cc(Cl)ccc2OCc2ccccc2)o1 ... ≤ 10 nM

Provide Ki values for the following items, in order.
1. CC(C)COc1ccc(Cl)cc1Cc1ccc(-c2nc3cc(CN(C)C)cnc3[nH]2)o1 [Example 164, dihydrochloride]
2. COc1ccc2[nH]c(-c3ccc(Cc4cc(Cl)ccc4OCc4ccccc4)o3)nc2c1
3. COc1ccc(CNC(=O)c2ccc(Cc3cc(Cl)ccc3OCC(C)C)o2)cc1
4. CC(C)Oc1ccc(Cl)cc1Cc1ccc(C(=O)O)o1
5. Cc1cc(C(=O)NCc2ccccc2)oc1Cc1cc(Cl)ccc1OCC(C)C
6. O=C(Nc1c(F)cccc1F)c1ccc(Cc2cc(Cl)ccc2OCC2CC2)o1

[A]
< 1000 nM
< 1000 nM
< 1000 nM
< 1000 nM
< 1000 nM
< 1000 nM

Data credit: patent US20080287430A1
